# measurement-parameters: rat; liver microsomes; pH 7.4; 15.0 min; 1.0 µM
Cut-off 4 min on half-life, inclusive. At or above means rule met; below means rule not met.

>  <molecule>
CCc1cccc(NS(=O)(=O)c2ccc3c(c2)CC(C)N3C(=O)C2CC2)c1 (stereo not given)

>  <group>
rule not met

$$$$

Entry Clc1cccc(-c2ccc(-c3nnc(CCCc4ccc5cccnc5n4)o3)cc2)c1 : is its half-life no less than 4 min?
rule not met

====

# measurement-parameters: rat; liver microsomes; pH 7.4; 15.0 min; 1.0 µM
Recorded half-life, one value per entry.

>  <molecule>
COc1ccc(C(=O)NC2CCN(c3cnn(CC4CC4)c(=O)c3)CC2)cc1

>  <result-type>
half-life

>  <endpoint-value>
> 30 min

$$$$
>  <molecule>
Cc1noc(C)c1-c1csc(N2CCC(C(N)=O)CC2)n1

>  <result-type>
half-life

>  <endpoint-value>
> 30 min

$$$$
>  <molecule>
COc1cccc(CNc2ccc(S(=O)(=O)Nc3nccs3)cc2)c1N

>  <result-type>
half-life

>  <endpoint-value>
> 30 min

$$$$
>  <molecule>
Fc1cc(-c2nc(Nc3ccc(F)c(F)c3)c3ccccc3n2)ccn1

>  <result-type>
half-life

>  <endpoint-value>
> 30 min

$$$$
>  <molecule>
C[C@]12N[C@H](Cc3ccccc31)c1ccccc12

>  <result-type>
half-life

>  <endpoint-value>
> 30 min

$$$$
>  <molecule>
Cc1cc(SCc2sc(-c3ccc(C(F)(F)F)cc3)nc2C)ccc1OCC(=O)O

>  <result-type>
half-life

>  <endpoint-value>
> 30 min

$$$$
>  <molecule>
COc1cccc(CNc2ccc(S(=O)(=O)Nc3ncccn3)cc2)c1O

>  <result-type>
half-life

>  <endpoint-value>
> 30 min

$$$$
>  <molecule>
COc1ccc(Cn2c(C(=O)O)c(CNCc3ccco3)c3ccc(C)cc32)cc1

>  <result-type>
half-life

>  <endpoint-value>
> 30 min

$$$$
>  <molecule>
CCN(CC)CCNC(=O)C1CCN(c2nn3cc(-c4ccc(F)cc4)nc3s2)CC1

>  <result-type>
half-life

>  <endpoint-value>
> 30 min

$$$$
>  <molecule>
Cc1noc(C)c1-c1ccc(-c2cc(C(N)=O)c(NC(N)=O)s2)c(O[C@H]2CCNC2)c1

>  <result-type>
half-life

>  <endpoint-value>
> 30 min

$$$$

Can you look up the measured half-life of CCN1CCN(c2ccc(Nc3ccc(-c4ccc(C(N)=O)cc4)n4ncnc34)cc2)CC1 for me?
> 30 min

Same question, Cn1c2ccccc2c(=O)c2c(=O)n(-c3ccccc3)c(C3CCCCC3)nc21 this time
> 30 min

Same question, Cc1ccc(C(=O)NC2CCN(c3cnn(CC4CC4)c(=O)c3)CC2)cc1C this time
16.3 min

Same question, CNc1oc(-c2cccc3ccccc23)nc1C(=O)OC this time
> 30 min

Same question, O=C(Nc1ccc(N2CCN(C(=O)c3ccccc3F)CC2)cc1)c1cncc(Br)c1 this time
> 30 min

Same question, O=C(C1CC(=O)N(c2n[nH]c3ccccc23)C1)N1CCC(c2noc3cc(F)ccc23)CC1 (stereo not drawn) this time
19.1 min

Same question, CN(C(=O)CSc1nc2ccc(NC(=O)c3ccc(F)cc3)cc2s1)c1ccccc1 this time
2.04 min

Same question, Fc1cnc(-c2ccccc2C(F)F)nc1NCc1ccc(-n2ccnn2)cc1 this time
21 min
